# Assay Target: T1, succinyl-L-Ala-L-Ala-L-Pro-L-Phe-p-nitroanilide (SEQ ID NO: 1)
# T1 chain: AAPF
Let's look at some proteins and their measured kcat/Km pH 8.6 (% of wild-type) (% of wild-type).
Property Name: kcat/Km pH 8.6 (% of wild-type) (% of wild-type)

Protein	Meas Value
wild-type subtilisin of Bacillus lentus (SEQ ID NO: 2) (protein) AQSVPWGISRVQAPAAHNRGLTGSGVKVAVLDTGISTHPDLNIRGGASFVPGEPSTQDGNGHGTHVAGTIAALNNSIGVLGVAPSAELYAVKVLGASGSGSVSSIAQGLEWAGNNGMHVANLSLGSPSPSATLEQAVNSATSRGVLVVAASGNSGAGSISYPARYANAMAVGATDQNNNRASFSQYGAGLDIVAPGVNVQSTYPGSTYASLNGTSMATPHVAGAAALVKQKNPSWSNVQIRNHLKNTATSLGSTNLYGSGLVNAEAATR	100
N74D/S97D/S126G/P204I/T254P/S259N (variant of sequence SEQ ID NO: 6) (protein) AQSVPWGISRVQAPAAHNRGLTGSGVKVAVLDTGISTHPDLNIRGGASFVPGEPSTQDGNGHGTHVAGTIAALDNSIGVLGVAPSAELYAVKVLGADGSGSVSSIAQGLEWAGNNGMHVANLSLGGPSPSATLEQAVNSATSRGVLVVAASGNSGAGSISYPARYANAMAVGATDQNNNRASFSQYGAGLDIVAPGVNVQSTYIGSTYASLNGTSMATPHVAGAAALVKQKNPSWSNVQIRNHLKNTATSLGSPNLYGNGLVNAEAATR	51
N74D/S99G/V102W/S126G/N198A/N212S/T254P (variant of sequence SEQ ID NO: 5) (protein) AQSVPWGISRVQAPAAHNRGLTGSGVKVAVLDTGISTHPDLNIRGGASFVPGEPSTQDGNGHGTHVAGTIAALDNSIGVLGVAPSAELYAVKVLGASGGGSWSSIAQGLEWAGNNGMHVANLSLGGPSPSATLEQAVNSATSRGVLVVAASGNSGAGSISYPARYANAMAVGATDQNNNRASFSQYGAGLDIVAPGVAVQSTYPGSTYASLSGTSMATPHVAGAAALVKQKNPSWSNVQIRNHLKNTATSLGSPNLYGSGLVNAEAATR	6360
N74D/S101A/V102W (control variant of WO1995010591; sequence SEQ ID NO: 3) (protein) AQSVPWGISRVQAPAAHNRGLTGSGVKVAVLDTGISTHPDLNIRGGASFVPGEPSTQDGNGHGTHVAGTIAALDNSIGVLGVAPSAELYAVKVLGASGSGAWSSIAQGLEWAGNNGMHVANLSLGSPSPSATLEQAVNSATSRGVLVVAASGNSGAGSISYPARYANAMAVGATDQNNNRASFSQYGAGLDIVAPGVNVQSTYPGSTYASLNGTSMATPHVAGAAALVKQKNPSWSNVQIRNHLKNTATSLGSTNLYGSGLVNAEAATR	1390
N74D/S99G/V102W/S126G/D191E/N198G/N212S/T254P (variant of sequence SEQ ID NO: 4) (protein) AQSVPWGISRVQAPAAHNRGLTGSGVKVAVLDTGISTHPDLNIRGGASFVPGEPSTQDGNGHGTHVAGTIAALDNSIGVLGVAPSAELYAVKVLGASGGGSWSSIAQGLEWAGNNGMHVANLSLGGPSPSATLEQAVNSATSRGVLVVAASGNSGAGSISYPARYANAMAVGATDQNNNRASFSQYGAGLEIVAPGVGVQSTYPGSTYASLSGTSMATPHVAGAAALVKQKNPSWSNVQIRNHLKNTATSLGSPNLYGSGLVNAEAATR	3330
